growth values by entry
- Tested on: HCT-15 colon
- Method: NCI-60 one-dose screen, 48 h (100 = growth as untreated, 0 = no growth, -100 = all killed)
- Condition Description: 10 µM unless noted
Compounds without any hit were thinned out: in the full panel of roughly 83,000, 20% have a hit. The source made the active and inactive calls. How the source made its calls: active means growth percent below 10; inactive means the rest.
Quantity: growth

>>> df
                                    compound  system_under_test  quantity                    result
 0  NC(=O)c1ccc(NC(=O)c2oc3ccccc3c2-c2cnn(-c3ccccc3)c2)cc1       HCT-15 colon    growth  43.2% [50 µM] (inactive)
 1  Cc1c2cc[nH]c(=O)c2c(C)c2c1[nH]c1ccc(OC(=O)c3ccccc3)cc12       HCT-15 colon    growth          27.9% (inactive)
 2  Clc1nn2c(Cn3cnc4c(NCc5ccccc5)ncnc43)nnc2c2ccccc12       HCT-15 colon    growth          25.8% (inactive)
 3  CN1CCN(c2ccc3c(c2)nc(NNC(=O)c2cnccn2)c2cccn23)CC1       HCT-15 colon    growth          23.9% (inactive)
 4             Cn1cccc1/C=C1\C(=O)Nc2ccccc21       HCT-15 colon    growth          50.9% (inactive)
 5  CCN(CC)CCCC(C)Nc1ccc2cc(OC)ccc2n1 (stereo unspecified)       HCT-15 colon    growth           103% (inactive)
 6  O=C(CN1CCN(c2cc3c(cc2F)c(=O)c(C(=O)O)cn3C2CC2)CC1)N/N=C/c1ccncc1       HCT-15 colon    growth          97.5% (inactive)
 7  COC(=O)c1ccc2c(c1)c1c(C)c3ccncc3c(C)c1n2C       HCT-15 colon    growth          18.6% (inactive)
 8  CCOC(=O)c1c2c(n3ccccc13)C(=O)c1ncccc1C2=O       HCT-15 colon    growth          22.4% (inactive)
 9  O=C(O)C1CN(c2cccc(Cl)c2)N(c2cccc(Cl)c2)C1=O (stereo unspecified)       HCT-15 colon    growth          91.8% (inactive)
10   COc1ccc(-c2ccc(-c3ccc(C(=N)N)cn3)s2)cc1       HCT-15 colon    growth          19.9% (inactive)
